# Tested on: normal retinal pigment epithelium (ARPE-19) cells
# METHOD: MTT cytotoxicity assay, ARPE-19
# Format: cell-based, human
# RUN_CONDITIONS: normal cell, 48 h, means of three independent experiments
VALUE_TYPE: pIC50
Worth noting: pIC50 values are minus log10 of concentrations stated in mol/L.

State its pIC50: COc1ccc(N=N[N]([Ag][O]C(C)=O)c2cccc(S(N)(=O)=O)c2)cc1 [Compound L2-Ag] 4.66

Answer with the recorded pIC50 of COc1ccc(N=N[N]([Ag][O]C(C)=O)c2cccc(S(N)(=O)=O)c2)cc1OC [Compound L4-Ag] only. 3.55

Please supply the value of reported pIC50 for the item COc1ccc([N+]2=N[N](c3cccc(S(N)(=O)=O)c3)[Cu-]2([O]C(C)=O)[O]C(C)=O)cc1OC [Compound L4-Cu] 3.98

Recall and state the measured pIC50 for CC(=O)[O][Cu-]1([O]C(C)=O)[N](c2cccc(S(N)(=O)=O)c2)N=[N+]1c1ccc(F)cc1 [Compound L1-Cu] . 3.92

Look up and report measured pIC50 for this entry: CC(=O)[O][Ag][N](N=Nc1cc(C)cc(C)c1)c1cccc(S(N)(=O)=O)c1 [Compound L5-Ag] 3.96

Return reported pIC50. Input compound: COc1ccc([N+]2=N[N](c3cccc(S(N)(=O)=O)c3)[Cu-]2([O]C(C)=O)[O]C(C)=O)cc1 [Compound L2-Cu] 3.88

Complete the entry with pIC50 for CC(=O)[O][Ag][N](N=Nc1ccc(C(=O)O)cc1)c1cccc(S(N)(=O)=O)c1 [Compound L3-Ag] 5.02

Consider the compound CC(=O)[O][Cu-]1([O]C(C)=O)[N](c2cccc(S(N)(=O)=O)c2)N=[N+]1c1cc(C)cc(C)c1 [Compound L5-Cu] . State its measured pIC50. 4.07
